Tested on: CEM-SS
Test: Cytotoxicity against human CEM-SS cells assessed as cell viability at 10 uM after 6 days by MTS assay relative to control
Format: cell-based
Details: 144 h
Activity: recorded values
Give the value, in units of %, as a plain number.

{"cpd_smiles": "Cc1cn([C@H]2C[C@H](n3cc(-c4cc5ccccc5c5ccccc45)nn3)[C@@H](CO)O2)c(=O)[nH]c1=O", "Activity [%]": 100}
{"cpd_smiles": "Cc1cn([C@H]2C[C@H](n3nncc3COc3cccc4ccccc34)[C@@H](CO)O2)c(=O)[nH]c1=O", "Activity [%]": 93}
{"cpd_smiles": "Cc1cn([C@H]2C[C@H](n3nncc3-c3ccc(-c4ccccc4)cc3)[C@@H](CO)O2)c(=O)[nH]c1=O", "Activity [%]": 80}
{"cpd_smiles": "Cc1cn([C@H]2C[C@H](n3nncc3-c3ccc(Cl)cc3)[C@@H](CO)O2)c(=O)[nH]c1=O", "Activity [%]": 100}
{"cpd_smiles": "Cc1cn([C@H]2C[C@H](n3cc(CO)nn3)[C@@H](CO)O2)c(=O)[nH]c1=O", "Activity [%]": 100}

Value sought: Activity, system CEM-SS, item Cc1cn([C@H]2C[C@H](n3nncc3-c3ccc4ccccc4c3)[C@@H](CO)O2)c(=O)[nH]c1=O . Result: 100

Value sought: Activity, system CEM-SS, item Cc1cn([C@H]2C[C@H](n3cc(-c4cccc5ccccc45)nn3)[C@@H](CO)O2)c(=O)[nH]c1=O . Result: 100

Value sought: Activity, system CEM-SS, item Cc1cn([C@H]2C[C@H](n3nncc3C3CC3)[C@@H](CO)O2)c(=O)[nH]c1=O . Result: 100

Value sought: Activity, system CEM-SS, item COc1ccc2ccc(OCc3cn([C@H]4C[C@H](n5cc(C)c(=O)[nH]c5=O)O[C@@H]4CO)nn3)cc2c1 . Result: 100

Value sought: Activity, system CEM-SS, item Cc1cn([C@H]2C[C@H](n3nncc3-c3cc4ccccc4c4ccccc34)[C@@H](CO)O2)c(=O)[nH]c1=O . Result: 100

Value sought: Activity, system CEM-SS, item Cc1cn([C@H]2C[C@H](n3cc(-c4ccc5[nH]ccc5c4)nn3)[C@@H](CO)O2)c(=O)[nH]c1=O . Result: 100

Value sought: Activity, system CEM-SS, item Cc1cn([C@H]2C[C@H](n3nncc3COc3ccccc3)[C@@H](CO)O2)c(=O)[nH]c1=O . Result: 100
